assay_info: Agonist activity at beta-adrenergic receptor in Hartley guinea pig atria assessed as maximal increase in contraction rate
Design: species or system Cavia porcellus

| compound | display_unit | EC50 |
| --- | --- | --- |
| Cl.NCC(O)c1ccc(O)c(O)c1F (racemic) | nM | 600 |
| Cl.NCC(O)c1cc(O)c(O)cc1F (racemic) | nM | 72000 |
| NCC(O)c1ccc(O)c(O)c1 (centres undefined) | nM | 700 |
| Cl.NCC(O)c1cc(O)c(O)c(F)c1 (racemic) | nM | 110 |

* * *

assay_info: Agonist activity at beta-adrenergic receptor in Hartley guinea pig ileum assessed as maximal relaxation
Format: tissue-based
condition_set: Cavia porcellus

| compound | display_unit | EC50 |
| --- | --- | --- |
| NCC(O)c1ccc(O)c(O)c1 (configuration not stated) | µM | 15.6 |
| Cl.NCC(O)c1cc(O)c(O)c(F)c1 (racemic) | µM | 44 |
